B1: Membrane-associated guanylate kinase, WW and PDZ domain-containing protein 2, residues 296 to 340; numbered along this chain, Q86UL8 (parent)
chain: EDNEEPDPLPDNWEMAYTEKGEVYFIDHNTKTTSWLDPRLAKKAK

variants of: B1; assay: abundance fitness (aPCA) (normalised: wild type 0, dead -1); higher = more abundant; growth selection in yeast, the domain comes from the species named; details: Homo sapiens
Response key: Satisfied means abundance fitness >= -0.02; Not satisfied means abundance fitness < -0.02.

Completed entries (count: 5):
mutation name: D27P
class name: Not satisfied

mutation name: D11E
class name: Satisfied

mutation name: N3V
class name: Not satisfied

mutation name: E19N
class name: Satisfied

mutation name: D37E
class name: Not satisfied

[ask] Quick check: does D11G have abundance fitness greater than or equal to -0.02?
[reply] Not satisfied

[ask] Quick check: does P8H have abundance fitness greater than or equal to -0.02?
[reply] Not satisfied

[ask] Quick check: does D7V have abundance fitness greater than or equal to -0.02?
[reply] Satisfied

[ask] Quick check: does E19V have abundance fitness greater than or equal to -0.02?
[reply] Not satisfied

[ask] Quick check: does M15G have abundance fitness greater than or equal to -0.02?
[reply] Not satisfied

[ask] Quick check: does Y24A have abundance fitness greater than or equal to -0.02?
[reply] Not satisfied

[ask] Quick check: does E14S have abundance fitness greater than or equal to -0.02?
[reply] Not satisfied
